Assayed Target: DLL3 endogenously expressed on NCI-H82 cells (UniProt Q9NYJ7)
Sequence (Q9NYJ7 27-618): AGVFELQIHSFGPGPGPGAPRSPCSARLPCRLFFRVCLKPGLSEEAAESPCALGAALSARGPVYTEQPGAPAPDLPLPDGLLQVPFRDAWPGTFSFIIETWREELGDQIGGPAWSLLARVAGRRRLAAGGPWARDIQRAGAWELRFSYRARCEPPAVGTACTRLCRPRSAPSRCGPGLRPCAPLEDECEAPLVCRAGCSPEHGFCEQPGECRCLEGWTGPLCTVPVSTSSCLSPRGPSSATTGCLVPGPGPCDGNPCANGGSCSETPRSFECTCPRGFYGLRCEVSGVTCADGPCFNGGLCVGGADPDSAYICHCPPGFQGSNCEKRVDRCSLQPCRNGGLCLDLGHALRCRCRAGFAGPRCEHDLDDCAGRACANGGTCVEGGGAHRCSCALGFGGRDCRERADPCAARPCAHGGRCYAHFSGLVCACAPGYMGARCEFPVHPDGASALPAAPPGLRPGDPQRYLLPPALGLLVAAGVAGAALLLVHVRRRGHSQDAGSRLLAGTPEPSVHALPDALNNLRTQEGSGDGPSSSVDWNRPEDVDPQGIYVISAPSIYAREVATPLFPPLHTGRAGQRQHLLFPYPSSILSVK
Assay Remarks: FACS on NCI-H82 cells; antibody 0.00128 nM
Experimental Endpoint: MFI

Hab015VL5VH1b-hFc (scFv, part only; not given: VL-VH linker and human IgG1 Fc, V domains shown, not shown: another chain or arm of the molecule; a dimerising Fc or GST; small tags and cut ends) VL: NIQMTQSPSSLSASVGDRVTITCKASENVGTYVSWYQQKPGKSPKLLIYGASNRYTGVPSRFSGSGSGTDFTLTISSLQPEDFATYYCGQFYSFPSTFGGGTKVEIK VH: EVQLVESGGGLVKPGGSLRLSCAASGITFSNFWMNWVRQAPGKGLEWVGQIRLKSEDYATHYAESVKGRFTISREDSKNTVYLQMNSLKTEDTAVYYCTTGYYFDYWGQGTTVTVSS; 121
Hab015VL5VH1a-hFc (scFv, part only; not given: scFv linker and human IgG1 Fc, V domains shown, not shown: another chain or arm of the molecule; a dimerising Fc or GST; small tags and cut ends) VL: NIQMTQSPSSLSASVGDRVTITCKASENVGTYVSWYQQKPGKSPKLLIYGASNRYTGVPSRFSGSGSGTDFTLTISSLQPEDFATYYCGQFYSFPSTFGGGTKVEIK VH: EVQLVESGGGLVKPGGSLRLSCAASGITFSNFWMNWVRQAPGKGLEWVGQIRLKSDDYATHYAESVKGRFTISREDSKNTVYLQMNSLKTEDTAVYYCTTGYYFDYWGQGTTVTVSS; 118
